Hello, the source for this data is patent US20210269480A1, in case you need it.

Target: T1, human Nectin-4 (human, UniProt Q96NY8 32-349)
T1 construct: a Gly32-Ser349 FLAG construct is described only under the SPR assay; also called PVRL4
T1 sequence (looked up): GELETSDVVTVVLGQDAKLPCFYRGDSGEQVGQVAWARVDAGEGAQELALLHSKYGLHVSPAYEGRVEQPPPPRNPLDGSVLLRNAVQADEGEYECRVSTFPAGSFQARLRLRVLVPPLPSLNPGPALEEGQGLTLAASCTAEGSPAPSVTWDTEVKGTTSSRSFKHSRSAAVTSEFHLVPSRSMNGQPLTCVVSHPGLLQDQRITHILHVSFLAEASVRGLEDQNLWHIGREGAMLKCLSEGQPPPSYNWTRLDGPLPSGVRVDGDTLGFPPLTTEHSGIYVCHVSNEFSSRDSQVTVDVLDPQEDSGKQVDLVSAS
Experiment: FP competition, tracer SEQ ID NO 217
*1 amine or outer side, *2 acyl side, *3 side chain or, on linkers, in order; H or OH if unused. Bridges are numbered along the chain shown (N, C = ends). Where no end group is shown, it is not given here. [ ]: non-standard residue; d: D form. TATA = O=C(CC[*:1])N1CN(C(=O)CC[*:2])CN(C(=O)CC[*:3])C1; Phe(4-COOH) = N[C@@H](Cc1ccc(C(=O)O)cc1)C(=O)O
TEST_READOUT: pKi
One number for each entry, as −log10 of the molar value.

{"BINDER": "SDNCPFGCMKDWSWPIWCA (linker 4-8-18 via TATA) [BCY3387]", "pKi": 6.63}

Would you mind giving pKi for every binder in the list below?
1. Ac-[Phe(4-COOH)]CPFGCMKNWSWPIWC (linker 2-6-16 via TATA) [BCY7656]
2. ACWPLDDYWCPRICPQA (linker 2-10-14 via TATA) [BCY3401]
3. Ac-[dD]CPFGCMKNWSWPIWC (linker 2-6-16 via TATA) [BCY7606]
4. ACPFGCMRNWSWPIWCA (linker 2-6-16 via TATA, also called 80-09-02-N003) [BCY429]

[7.14, 6.81, 7.47, 7.37]

Would you mind telling me what pKi value was observed for ACPFGCQEDWSWPIWCLSE (linker 2-6-16 via TATA) [BCY3398] ? 6.79
